# measurement.target: human GR (Homo sapiens, UniProt P04150)
# assay.protocol: Transrepression Assay (GITAR), TNFα-β-lactamase reporter gene in U937 cells
# Assay type: cell-based
# Design: U937 cells contain an endogenous glucocorticoid receptor (GR); endogenous in cells; host or cells: U937 cells stably transfected with the TNF-α promoter/β-lactamase reporter only
# condition.label: Table 1; U937 cells; IP = inflection point; read-out: Transrepression U937 Cells GITAR IP
Property: EC50; scope: individual compounds

{"compound": "CC(C)(C)NC(=O)c1c(F)cccc1CC[C@]1(O)CCC2=Cc3c(cnn3-c3ccc(F)cc3)C[C@@]21C", "measurement.target": "human GR (Homo sapiens, UniProt P04150)", "EC50 [nM]": 95}
{"compound": "CCC(O)(C(N)=O)c1ccccc1CC[C@]1(O)CCC2=Cc3c(cnn3-c3ccc(F)cc3)C[C@@]21C (stereo partly shown)", "measurement.target": "human GR (Homo sapiens, UniProt P04150)", "EC50 [nM]": 77}
{"compound": "C[C@]12Cc3cnn(-c4ccc(F)cc4)c3C=C1CC[C@@]2(O)CCc1ccccc1C(=O)N1CCCC1", "measurement.target": "human GR (Homo sapiens, UniProt P04150)", "EC50 [nM]": 205}
{"compound": "CN(C)S(=O)(=O)c1ccccc1CC[C@]1(O)CCC2=Cc3c(cnn3-c3ccc(F)cc3)C[C@@]21C", "measurement.target": "human GR (Homo sapiens, UniProt P04150)", "EC50 [nM]": 212}

* * *

# measurement.target: human GR (Homo sapiens)
# Sequence (P04150 1-777): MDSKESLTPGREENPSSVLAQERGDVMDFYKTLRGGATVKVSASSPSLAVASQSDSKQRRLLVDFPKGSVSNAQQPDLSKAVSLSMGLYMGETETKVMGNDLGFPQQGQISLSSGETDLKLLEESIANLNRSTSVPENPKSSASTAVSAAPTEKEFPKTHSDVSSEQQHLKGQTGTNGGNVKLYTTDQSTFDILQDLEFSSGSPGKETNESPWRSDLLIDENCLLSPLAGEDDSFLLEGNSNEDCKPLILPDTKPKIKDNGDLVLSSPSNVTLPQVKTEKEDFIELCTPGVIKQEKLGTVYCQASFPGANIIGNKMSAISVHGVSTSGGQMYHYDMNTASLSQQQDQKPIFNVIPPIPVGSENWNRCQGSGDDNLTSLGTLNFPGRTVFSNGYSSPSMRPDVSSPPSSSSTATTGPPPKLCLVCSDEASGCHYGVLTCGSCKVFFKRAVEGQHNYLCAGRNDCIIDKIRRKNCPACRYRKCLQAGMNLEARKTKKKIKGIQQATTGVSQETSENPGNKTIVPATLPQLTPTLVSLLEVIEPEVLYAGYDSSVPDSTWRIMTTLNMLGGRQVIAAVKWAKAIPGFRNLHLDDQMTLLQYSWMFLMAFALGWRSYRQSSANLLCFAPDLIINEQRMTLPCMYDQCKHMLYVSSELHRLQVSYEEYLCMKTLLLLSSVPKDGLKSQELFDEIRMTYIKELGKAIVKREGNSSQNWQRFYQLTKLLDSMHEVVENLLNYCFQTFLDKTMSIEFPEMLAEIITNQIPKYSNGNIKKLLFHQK
# assay.protocol: Transrepression Assay (GITAR), TNFα-β-lactamase reporter gene in U937 cells
# Format: cell-based
# Set-up: U937 cells contain an endogenous glucocorticoid receptor (GR); endogenous in cells; host or cells: U937 cells stably transfected with the TNF-α promoter/β-lactamase reporter only
# condition.label: Table 1; separation of GITAR Emax over GRAMMER Emax
measure: GITAR > GRAMM % SEP (%)

{"compound": "CC1(NC(=O)c2ccccc2CC[C@]2(O)CCC3=Cc4c(cnn4-c4ccc(F)cc4)C[C@@]32C)CC1", "measure": "GITAR > GRAMM % SEP", "recorded.value": 43}
{"compound": "CCCNC(=O)c1ccccc1CC[C@]1(O)CCC2=Cc3c(cnn3-c3ccc(F)cc3)C[C@@]21C", "measure": "GITAR > GRAMM % SEP", "recorded.value": 21}
{"compound": "CC1(NC(=O)c2ccccc2CC[C@]2(O)CCC3=Cc4c(cnn4-c4ccccc4)C[C@@]32C)CC1", "measure": "GITAR > GRAMM % SEP", "recorded.value": 41}
{"compound": "CC(C)S(=O)(=O)NCc1c(F)cccc1CC[C@]1(O)CCC2=Cc3c(cnn3-c3ccc(F)cc3)C[C@@]21C", "measure": "GITAR > GRAMM % SEP", "recorded.value": 33}
{"compound": "CNC(=O)Cc1ccccc1CC[C@]1(O)CCC2=Cc3c(cnn3-c3ccc(F)cc3)C[C@@]21C", "measure": "GITAR > GRAMM % SEP", "recorded.value": 37}
{"compound": "C[C@]12Cc3cnn(-c4ccc(F)cc4)c3C=C1CC[C@@]2(O)CCc1ccccc1S(C)(=O)=O", "measure": "GITAR > GRAMM % SEP", "recorded.value": 33}
{"compound": "CCNC(=O)c1ccccc1CC[C@]1(O)CCC2=Cc3c(cnn3-c3ccc(F)cc3)C[C@@]21C", "measure": "GITAR > GRAMM % SEP", "recorded.value": 14}
{"compound": "C[C@]12Cc3cnn(-c4ccccc4)c3C=C1CC[C@@]2(O)CCc1ccccc1C(=O)NC1CC1", "measure": "GITAR > GRAMM % SEP", "recorded.value": 13}
{"compound": "C[C@]12Cc3cnn(-c4ccc(F)cc4)c3C=C1CC[C@@]2(O)CCc1cccc(F)c1CNS(=O)(=O)C(Cl)Cl", "measure": "GITAR > GRAMM % SEP", "recorded.value": 44}
{"compound": "CC(C)NC(=O)c1ccccc1CC[C@]1(O)CCC2=Cc3c(cnn3-c3ccc(F)cc3)C[C@@]21C", "measure": "GITAR > GRAMM % SEP", "recorded.value": 14}
{"compound": "CCS(=O)(=O)c1ccccc1CC[C@]1(O)CCC2=Cc3c(cnn3-c3ccc(F)cc3)C[C@@]21C", "measure": "GITAR > GRAMM % SEP", "recorded.value": 29}
{"compound": "C[C@]12Cc3cnn(-c4ccc(F)cc4)c3C=C1CC[C@@]2(O)CCc1cccc(F)c1CNS(=O)(=O)C1CC1", "measure": "GITAR > GRAMM % SEP", "recorded.value": 37}
{"compound": "CCCNC(=O)c1c(F)cccc1CC[C@]1(O)CCC2=Cc3c(cnn3-c3ccc(F)cc3)C[C@@]21C", "measure": "GITAR > GRAMM % SEP", "recorded.value": 47}
{"compound": "C[C@]12Cc3cnn(-c4ccc(Cl)cc4)c3C=C1CC[C@@]2(O)CCc1cccc(F)c1C(N)=O", "measure": "GITAR > GRAMM % SEP", "recorded.value": 41}
{"compound": "C[C@]12Cc3cnn(-c4ccc(F)cc4)c3C=C1CC[C@@]2(O)CCc1ccccc1C(F)C(N)=O (single isomer, unassigned)", "measure": "GITAR > GRAMM % SEP", "recorded.value": 23}

* * *

# measurement.target: glucocorticoid receptor (GR) (Homo sapiens, UniProt P04150)
# Construct: endogenous in cells; host or cells: HeLa (ATCC) cell lysate supernatant
# assay.protocol: Ligand binding assay (GR BIND), 3H-dexamethasone displacement, HeLa cell lysate
# condition.label: Table 1; HeLa cell lysate, 3H-DEX
Property: Ki; scope: individual compounds
measure: Ki (nM)

{"smi": "CC1(NC(=O)c2ccccc2CC[C@]2(O)CCC3=Cc4c(cnn4-c4ccccc4)C[C@@]32C)CC1", "recorded.value": 5.29}
{"smi": "CC(C)NC(=O)c1ccccc1CC[C@]1(O)CCC2=Cc3c(cnn3-c3ccc(F)cc3)C[C@@]21C", "recorded.value": 3.55}
{"smi": "CC(=O)Nc1ccccc1CC[C@]1(O)CCC2=Cc3c(cnn3-c3ccc(F)cc3)C[C@@]21C", "recorded.value": 6.38}
{"smi": "C[C@]12Cc3cnn(-c4ccc(F)cc4)c3C=C1CC[C@@]2(O)CCc1ccc(Cl)cc1C(N)=O", "recorded.value": 2.12}

* * *

# measurement.target: glucocorticoid receptor (GR) (Homo sapiens, UniProt P04150)
# Construct: endogenous in cells; host or cells: HeLa (ATCC) cell lysate supernatant
# assay.protocol: Ligand binding assay (GR BIND), 3H-dexamethasone displacement, HeLa cell lysate
# condition.label: Table 1; HeLa cell lysate, 3H-DEX
measure: Ki (nM)

{"compound": "C[C@]12Cc3cnn(-c4ccc(F)cc4)c3C=C1CC[C@@]2(O)CCc1ccccc1C(=O)NCC1CC1", "measurement.target": "glucocorticoid receptor (GR) (Homo sapiens, UniProt P04150)", "recorded.value": 0.44}
{"compound": "CC(C)(C)NC(=O)c1c(F)cccc1CC[C@]1(O)CCC2=Cc3c(cnn3-c3ccc(F)cc3)C[C@@]21C", "measurement.target": "glucocorticoid receptor (GR) (Homo sapiens, UniProt P04150)", "recorded.value": 1.83}
{"compound": "CC(O)(C(N)=O)c1ccccc1CC[C@]1(O)CCC2=Cc3c(cnn3-c3ccc(F)cc3)C[C@@]21C (single isomer, unassigned)", "measurement.target": "glucocorticoid receptor (GR) (Homo sapiens, UniProt P04150)", "recorded.value": 11}
{"compound": "Cc1cccc(CC[C@]2(O)CCC3=Cc4c(cnn4-c4cccc(F)c4)C[C@@]32C)c1C(N)=O", "measurement.target": "glucocorticoid receptor (GR) (Homo sapiens, UniProt P04150)", "recorded.value": 2.51}
{"compound": "C[C@]12Cc3cnn(-c4ccc(F)cc4)c3C=C1CC[C@@]2(O)CCc1cccc(F)c1[C@@H](N)C(F)(F)F", "measurement.target": "glucocorticoid receptor (GR) (Homo sapiens, UniProt P04150)", "recorded.value": 2.6}
{"compound": "CN(C)S(=O)(=O)NCc1c(F)cccc1CC[C@]1(O)CCC2=Cc3c(cnn3-c3ccc(F)cc3)C[C@@]21C", "measurement.target": "glucocorticoid receptor (GR) (Homo sapiens, UniProt P04150)", "recorded.value": 0.4}
{"compound": "COc1cccc(CC[C@]2(O)CCC3=Cc4c(cnn4-c4ccc(F)cc4)C[C@@]32C)c1C(N)=O", "measurement.target": "glucocorticoid receptor (GR) (Homo sapiens, UniProt P04150)", "recorded.value": 1.55}
